# Target: T1, mouse GLP-1 receptor (mouse, UniProt O35659 22-463)
# T1 sequence (looked up): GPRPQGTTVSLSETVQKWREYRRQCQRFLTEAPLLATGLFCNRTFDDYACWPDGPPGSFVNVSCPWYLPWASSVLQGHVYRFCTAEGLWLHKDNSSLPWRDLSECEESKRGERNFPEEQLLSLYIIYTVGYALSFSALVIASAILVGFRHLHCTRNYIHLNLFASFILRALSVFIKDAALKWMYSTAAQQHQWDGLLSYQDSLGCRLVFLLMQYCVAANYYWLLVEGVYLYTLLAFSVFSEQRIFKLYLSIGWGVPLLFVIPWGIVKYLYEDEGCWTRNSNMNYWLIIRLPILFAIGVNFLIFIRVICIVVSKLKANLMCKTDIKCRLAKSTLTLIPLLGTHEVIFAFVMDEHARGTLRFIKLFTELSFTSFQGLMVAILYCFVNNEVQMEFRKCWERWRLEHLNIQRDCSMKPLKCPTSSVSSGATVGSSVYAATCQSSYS
# Assay overview: cell-based or functional assay
Attribute measured: cAMP EC50 (nM)
Give just the numeric value; nM need not be written.

Answered cases to consult:
>>> result_value("IP326 (Fc fusion) YSEGTFTSDYSKLLEEEAVRLFIEWLLAGGGGGGGSGGGGSGGGGSGGGGSGGGGSA")
0.87
>>> result_value("IP328 (Fc fusion) YSEGTFTSDYSKLLEEEAVRLFIEWLLAGGGGGGGSGGGGSGGGGSGGGGSGGGGSGGGGSGGGGSGGGGSA")
3.9
>>> result_value("IP324 (Fc fusion) YSEGTFTSDYSKLLEEEAVRLFIEWLVKGPGGGGGSGGGGSGGGGSGGGGSGGGGSGGGGSGGGGSA")
0.72

[Q] Value lookup for cAMP EC50; key = IP362 (Fc fusion) YSEGTFTSDYMMLKEEEAVRLFIEWLLAGGGGGGSGGGGSGGGGSGGGGSATHTCPPC
[A] 11

[Q] Another binder: IP358 (Fc fusion) YSEGTFTSDFSKLLEEEAVRLFIEWLLAGGGGGGSGGGGSGGGGSGGGGSATHTCPPC
[A] 1.1
